# PROCEDURE_SUMMARY: Pharmacokinetics after intravenous and oral administration in rats (LC-MS/MS of plasma)
# Assay type: in vivo, male Sprague-Dawley (S.D.) rats
# TEST_PARAMETERS: male, Sprague-Dawley, rat, plasma, oral 60 mg/kg vs intravenous 5 mg/kg, F = (AUCp.o × Dosei.v)/(AUCi.v × Dosep.o) × 100%, read-out: F (absolute oral bioavailability)
MEASURE_NAME: bioavailability

1) CO[C@H]1C[C@H]2OC[C@@]2(OC(C)=O)[C@H]2[C@H](OC(=O)c3ccccc3)[C@]34OC(=O)O[C@H]3[C@H](OC(=O)[C@H](O)[C@@H](NC(=O)OC(C)(C)C)c3ccccc3)C(C)=C([C@@H](OC(=O)N(C)C)C(=O)[C@]12C)C4(C)C [Compound T-26]
~66%
2) CO[C@H]1C(=O)[C@]2(C)[C@@H](OC(=O)N(C)C)C[C@H]3OC[C@@]3(OC(C)=O)[C@H]2[C@H](OC(=O)c2ccccc2)[C@]2(O)C[C@H](OC(=O)[C@H](O)[C@@H](NC(=O)OC(C)(C)C)c3ccccc3)C(C)=C1C2(C)C [Compound T-13]
~11%
